Assay notes: NCI Yeast Anticancer Drug Screen. Data for the cln2 rad14 strain (AID 165);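 note: 0% = growth equal to vehicle treated cultures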
Setup conditions: S. cerevisiae cln2 rad14 strain, at 50.0 µM, active compounds read high
About 79,000 compounds went through this panel and 15% of them were active in at least one assay; those are over-represented in the sample as a whole.
Reported growth inhibition is given for each of the following compounds.
Measure name: growth inhibition (%)

[[record]]
compound = "Cn1c(=O)c2[nH]c(N(CCO)N=O)nc2n(C)c1=O"
reported_measurement = -7.35

[[record]]
compound = "CCCCCCNCc1cc(CNCCCCCC)c(O)c(CNCCCCCC)c1"
reported_measurement = -2.4

[[record]]
compound = "CC(=O)OCC(OC(C)=O)C(OC1OC(COC(C)=O)C(OC(C)=O)C(OC(C)=O)C1OC(C)=O)C(OC(C)=O)c1cnn(-c2ccccc2)n1 (centres undefined)"
reported_measurement = -19.4

[[record]]
compound = "Cc1ccc(S(=O)(=O)C(c2ccccc2)C(Br)C(=O)c2ccccc2)cc1 (centres undefined)"
reported_measurement = 7.3

[[record]]
compound = "CCOC(=O)c1ccncc1"
reported_measurement = -4.4

[[record]]
compound = "CN(C)CC(N)C(=O)O (centres undefined)"
reported_measurement = -13.6

[[record]]
compound = "CCOC(=O)c1cccc(C(=O)OCC)n1"
reported_measurement = -1.65

[[record]]
compound = "O=S(=O)(N1CCOCC1)N1CCOCC1"
reported_measurement = -25.6

[[record]]
compound = "O=S(=O)(N1CCCCC1)N1CCCCC1"
reported_measurement = 8.85

[[record]]
compound = "COC(=O)CCC(=O)CN1C(=O)c2ccccc2C1=O"
reported_measurement = 11.5

[[record]]
compound = "O=[N+]([O-])c1cccc(OCC2CO2)c1 (centres undefined)"
reported_measurement = -13.2

[[record]]
compound = "CC1c2c(cc(=O)n(Cc3ccccc3)c2O)C(=O)N1Cc1ccccc1 (centres undefined)"
reported_measurement = 4.75

[[record]]
compound = "Nc1ccc(S(=O)(=O)N/N=C/c2ccco2)cc1"
reported_measurement = 1.6

[[record]]
compound = "Cc1cc(Cl)c2c(c1)C(=O)C(C)C2.[Cu+2] (centres undefined)"
reported_measurement = -26.4

[[record]]
compound = "O=C(Nc1ccc(Cl)c([N+](=O)[O-])c1)Oc1ccc2ccccc2c1"
reported_measurement = 11.9

[[record]]
compound = "Oc1ccc2ccccc2c1C(c1ccccc1)N1CCOCC1 (centres undefined)"
reported_measurement = -24.7

[[record]]
compound = "O=C(O)C(Cc1ccc(OS(=O)(=O)Cc2ccccc2)cc1)NS(=O)(=O)Cc1ccccc1 (centres undefined)"
reported_measurement = 5.1

[[record]]
compound = "COC(=O)c1ccc(N=Nc2ncc(CC(NC(C)=O)C(=O)OC)[nH]2)cc1 (centres undefined)"
reported_measurement = -34.5

[[record]]
compound = "CCCN=C(C)C(C)=NCCC"
reported_measurement = -11

[[record]]
compound = "CCC(CO)N1CNC(=S)NC1 (centres undefined)"
reported_measurement = 0.8

[[record]]
compound = "COc1ccc(C(O)C(=O)c2nc3ccc([N+](=O)[O-])cc3[nH]c2=O)cc1 (centres undefined)"
reported_measurement = -22.1

[[record]]
compound = "C[Si](C)(C)CN=P(c1ccccc1)(c1ccccc1)c1ccccc1"
reported_measurement = 17.4

[[record]]
compound = "O=C(O)c1cc(-c2cccs2)c(C(=O)O)s1"
reported_measurement = -19.1

[[record]]
compound = "C1=C(c2ccccc2)OC(c2ccccc2)=C(c2ccccc2)[P+]1(c1ccccc1)c1ccccc1"
reported_measurement = 99.7

